B1: LINE1-mini (parent)
chain: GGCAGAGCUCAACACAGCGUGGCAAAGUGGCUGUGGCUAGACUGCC

variants of: B1; experiment: self-cleavage, relative activity (ratio to wild type); higher = more cleavage; in vitro, sequencing; the parent is a self-cleaving ribozyme
self-cleavage of 0.09 or higher: 1. Under 0.09: 0.

A4U G36A :: 1
G21C C31A :: 1
G19C U20C :: 1

stdin: Item A24U G36C with self-cleavage of 0.09 or above?
stdout: 1

stdin: Item A24G G27C with self-cleavage of 0.09 or above?
stdout: 1

stdin: Item `G33C` with self-cleavage of 0.09 or above?
stdout: 0

stdin: Item G35A C46U with self-cleavage of 0.09 or above?
stdout: 1

stdin: Item G2A U43C with self-cleavage of 0.09 or above?
stdout: 1

stdin: Item G2U U38A with self-cleavage of 0.09 or above?
stdout: 0

stdin: Item C23G C46A with self-cleavage of 0.09 or above?
stdout: 1
